// data source = ChEMBL document CHEMBL3525996

Protocol Summary: Cmax in Sprague-Dawley rat at 2.5 mg/kg, po
Assay type: ADME, organism-based
Parameters: dose 2.5 mg/kg, route oral
Measurement Parameters: in vivo
Assay Metric: Cmax (ng/mL)

Query: GET /values?readout=Cmax&item= N=C(N)NC(=O)c1cnn(-c2cccc3ncccc23)c1C1CC1 [ZONIPORIDE]
Result: 24.7

Query: GET /values?readout=Cmax&item= [2H]c1ccc2c(-n3ncc(C(=O)NC(=N)N)c3C3CC3)cccc2n1
Result: 18.4

* * *

Protocol Summary: AUC in Hartley guinea pig at 1 mg/kg, iv
Format: ADME, organism-based, Cavia porcellus
Set-up: dose 1 mg/kg, route intravenous
Measurement Parameters: plasma
Assay Metric: AUC (ng·h/mL)

1. [2H]c1ccc2c(-n3ncc(C(=O)NC(=N)N)c3C3CC3)cccc2n1
2. N=C(N)NC(=O)c1cnn(-c2cccc3ncccc23)c1C1CC1 [ZONIPORIDE]
Query: Please compare: 1 and 2 . Report which one has the smaller AUC value. Identify your selection by its label.
Result: 2
(2: 23.2 ng·h/mL, 1: 40.7 ng·h/mL)

* * *

Protocol Summary: AUC in Sprague-Dawley rat at 2.5 mg/kg, po
Type: ADME, organism-based
Parameters: dose 2.5 mg/kg, route oral
Measurement Parameters: plasma
Assay Metric: AUC (ng·h/mL)

1. N=C(N)NC(=O)c1cnn(-c2cccc3ncccc23)c1C1CC1 [ZONIPORIDE]
2. [2H]c1ccc2c(-n3ncc(C(=O)NC(=N)N)c3C3CC3)cccc2n1
Query: Returns: the argument ( 1 or 2 ) having the larger AUC. Identify your selection by its label.
Result: 1

* * *

Protocol Summary: Half life in Hartley guinea pig at 1 mg/kg, iv
Assay type: ADME, organism-based, Cavia porcellus
Set-up: dose 1 mg/kg, route intravenous
Measurement Parameters: in vivo
Assay Metric: half-life (min)

Query: GET /values?readout=half-life&item= [2H]c1ccc2c(-n3ncc(C(=O)NC(=N)N)c3C3CC3)cccc2n1
Result: 30

Query: GET /values?readout=half-life&item= N=C(N)NC(=O)c1cnn(-c2cccc3ncccc23)c1C1CC1 [ZONIPORIDE]
Result: 30

* * *

Listing of entries alongside the reported Km.
Test system: aldehyde oxidase
Protocol Summary: Activity of guinea pig cytosolic aldehyde oxidase
Measurement Parameters: cytosol (aldehyde oxidase)
Numbers only here, please. The scale is µM.

Query: GET /values?readout=Km&item= [2H]c1ccc2ccccc2n1
Result: 193

// switching to the query compound
Query: GET /values?readout=Km&item= c1ccc2ncccc2c1
Result: 212

* * *

Protocol Summary: Cmax in Hartley guinea pig at 5 mg/kg, po
Type: ADME, organism-based, Cavia porcellus
Set-up: dose 5 mg/kg, route oral
Measurement Parameters: in vivo
Assay Metric: Cmax (ng/mL)

A. CCNC(=O)OC1CCN(c2nncc3cc(OC)c(OC)cc23)CC1 [CARBAZERAN]
B. [2H]c1nnc(N2CCC(OC(=O)NCC)CC2)c2cc(OC)c(OC)cc12
Query: Please compare: A and B . Report which one has the smaller Cmax value. Identify your selection by its label.
Result: A

* * *

Protocol Summary: AUC in Hartley guinea pig at 2.5 mg/kg, po
Format: ADME, organism-based, Cavia porcellus
Parameters: dose 2.5 mg/kg, route oral
Measurement Parameters: plasma
Assay Metric: AUC (ng·h/mL)

Query: GET /values?readout=AUC&item= [2H]c1ccc2c(-n3ncc(C(=O)NC(=N)N)c3C3CC3)cccc2n1
Result: 25.7

Query: GET /values?readout=AUC&item= N=C(N)NC(=O)c1cnn(-c2cccc3ncccc23)c1C1CC1 [ZONIPORIDE]
Result: 22.2
